Quick record: k on, Neutrophil elastase (Homo sapiens) (UniProt P08246).
Answers are plain numbers, in M⁻¹ s⁻¹.

CC(C)c1cc(N(C)C)cc2c1C(=O)N(COC(=O)c1c(Cl)cccc1Cl)S2(=O)=O    12300
CC(C)c1cc(N2CCN(C)CC2)cc2c1C(=O)N(COC(=O)c1c(Cl)cccc1Cl)S2(=O)=O    21500
CCCc1c(OC)c(OC)cc2c1C(=O)N(CSc1nnnn1-c1ccccc1)S2(=O)=O    240000
CC(C)c1cc(F)cc2c1C(=O)N(COC(=O)c1c(Cl)cccc1Cl)S2(=O)=O    1e+06
COc1cc2c(c(C(C)C)c1OC)C(=O)N(CSc1nnnn1-c1ccccc1)S2(=O)=O    11800

API: the following record is the query input.
# input Requested read-out: k on. Entry: CC(C)c1cccc2c1C(=O)N(COC(=O)c1c(Cl)cccc1Cl)S2(=O)=O
# output 900000
